System: 22Rv1 tumor-bearing mice
Test: Biodistribution in 22Rv1 tumor-bearing mice
Settings: 10 min p.i., 0.74 MBq, n = 3
valueType: Uptake Kidney, Mean (ID%/g)
# output: bare number, implied unit ID%/g

>>> assayresult("O=C([O-])CN1CCN(CC(=O)[O-])CCN(CC(=O)NCCCCC(=O)NC(Cc2cnc3ccccc3c2)C(=O)NCCCCC(NC(=O)NC(CCC(=O)O)C(=O)O)C(=O)O)CCN(CC(=O)O)CC1.[68Ga+3] (stereo not drawn) [[^68Ga]Ga-PSMA-Q-1]")
27.12
>>> assayresult("O=C([O-])CN(CCN(CC(=O)[O-])Cc1cc(CCC(=O)NCCCCCC(=O)NCCCC[C@H](NC(=O)N[C@@H](CCC(=O)O)C(=O)O)C(=O)O)ccc1[O-])Cc1cc(CCC(=O)O)ccc1[O-].[68Ga+3].[OH3+] [[^68Ga]Ga-PSMA-11, reference compound]")
10.20

// next item, Uptake Kidney, Mean requested
Value of measured Uptake Kidney, Mean for the entry O=C([O-])CN1CCN(CC(=O)[O-])CCN(CC(=O)NCc2ccc(C(=O)NC(Cc3cnc4ccccc4c3)C(=O)NCCCCC(NC(=O)NC(CCC(=O)O)C(=O)O)C(=O)O)cc2)CCN(CC(=O)O)CC1.[68Ga+3] (stereo not drawn) [[^68Ga]Ga-PSMA-Q-3] : 21.45

---

Tested on: 22Rv1 tumor-bearing mice
Assay: Biodistribution in 22Rv1 tumor-bearing mice
Settings: 60 min p.i., 0.74 MBq, n = 3
Items are presented alongside their recorded Uptake Liver, Mean.
Write the number in ID%/g without appending the unit.

>>> assayresult("O=C([O-])CN1CCN(CC(=O)[O-])CCN(CC(=O)NCCCCC(=O)NC(Cc2cnc3ccccc3c2)C(=O)NCCCCC(NC(=O)NC(CCC(=O)O)C(=O)O)C(=O)O)CCN(CC(=O)O)CC1.[68Ga+3] (stereo not drawn) [[^68Ga]Ga-PSMA-Q-1]")
0.45

Now consider the entry below.
Item: O=C([O-])CN1CCN(CC(=O)[O-])CCN(CC(=O)NCC2CCC(C(=O)NC(Cc3cnc4ccccc4c3)C(=O)NCCCCC(NC(=O)NC(CCC(=O)O)C(=O)O)C(=O)O)CC2)CCN(CC(=O)O)CC1.[68Ga+3] (stereo not drawn) [[^68Ga]Ga-PSMA-Q] | Uptake Liver, Mean: 0.70

---

Test system: 22Rv1 tumor-bearing mice
Assay: Biodistribution in 22Rv1 tumor-bearing mice
Conditions: 10 min p.i., 0.74 MBq, n = 3
# note: exactly 2 ID%/g is not below, so it is Not satisfied; use Satisfied for Uptake Spleen, Mean strictly under it

Record excerpt, results attached:
>>> classname("O=C([O-])CN1CCN(CC(=O)[O-])CCN(CC(=O)NCC2CCC(C(=O)NC(Cc3ccc4ccccc4c3)C(=O)NCCCCC(NC(=O)NC(CCC(=O)O)C(=O)O)C(=O)O)CC2)CCN(CC(=O)O)CC1.[68Ga+3] (stereo not shown) [[^68Ga]Ga-PSMA-617, reference compound]")
"Not satisfied"
>>> classname("O=C([O-])CN1CCN(CC(=O)[O-])CCN(CC(=O)NCCCCC(=O)NC(Cc2cnc3ccccc3c2)C(=O)NCCCCC(NC(=O)NC(CCC(=O)O)C(=O)O)C(=O)O)CCN(CC(=O)O)CC1.[68Ga+3] (stereo not shown) [[^68Ga]Ga-PSMA-Q-1]")
"Not satisfied"
>>> classname("O=C([O-])CN1CCN(CC(=O)[O-])CCN(CC(=O)NCC2CCC(C(=O)NC(Cc3cnc4ccccc4c3)C(=O)NCCCCC(NC(=O)NC(CCC(=O)O)C(=O)O)C(=O)O)CC2)CCN(CC(=O)O)CC1.[68Ga+3] (stereo not shown) [[^68Ga]Ga-PSMA-Q]")
"Not satisfied"
>>> classname("O=C([O-])CN(CCN(CC(=O)[O-])Cc1cc(CCC(=O)NCCCCCC(=O)NCCCC[C@H](NC(=O)N[C@@H](CCC(=O)O)C(=O)O)C(=O)O)ccc1[O-])Cc1cc(CCC(=O)O)ccc1[O-].[68Ga+3].[OH3+] [[^68Ga]Ga-PSMA-11, reference compound]")
"Satisfied"
>>> classname("O=C([O-])CN1CCN(CC(=O)[O-])CCN(CC(=O)NCc2ccc(C(=O)NC(Cc3cnc4ccccc4c3)C(=O)NCCCCC(NC(=O)NC(CCC(=O)O)C(=O)O)C(=O)O)cc2)CCN(CC(=O)O)CC1.[68Ga+3] (stereo not shown) [[^68Ga]Ga-PSMA-Q-3]")
"Satisfied"

Ask | Does O=C([O-])CN1CCN(CC(=O)[O-])CCN(CC(=O)NCCCCCC(=O)NC(Cc2cnc3ccccc3c2)C(=O)NCCCCC(NC(=O)NC(CCC(=O)O)C(=O)O)C(=O)O)CCN(CC(=O)O)CC1.[68Ga+3] (stereo not shown) [[^68Ga]Ga-PSMA-Q-2] have Uptake Spleen, Mean strictly under 2 ID%/g?
Reply | Not satisfied

Ask | Strictly below 2 ID%/g in Uptake Spleen, Mean? O=C([O-])CN1CCN(CC(=O)[O-])CCN(CC(=O)NCC2CCC(C(=O)NC(Cc3ccncc3)C(=O)NCCCCC(NC(=O)NC(CCC(=O)O)C(=O)O)C(=O)O)CC2)CCN(CC(=O)O)CC1.[68Ga+3] (stereo not shown) [[^68Ga]Ga-PSMA-4PY]
Reply | Satisfied
